target: histamine H3-receptor (Rattus norvegicus, UniProt Q9QYN8); test: [3H] N-alpha-methyl-histamine competitive histamine H3-receptor binding assay; settings: membranes from whole rat brain cortex; [3H]-N-α-methyl-histamine 1 nM; 30 min at room temperature
Sequence (Q9QYN8 1-397 isoform Q9QYN8-3): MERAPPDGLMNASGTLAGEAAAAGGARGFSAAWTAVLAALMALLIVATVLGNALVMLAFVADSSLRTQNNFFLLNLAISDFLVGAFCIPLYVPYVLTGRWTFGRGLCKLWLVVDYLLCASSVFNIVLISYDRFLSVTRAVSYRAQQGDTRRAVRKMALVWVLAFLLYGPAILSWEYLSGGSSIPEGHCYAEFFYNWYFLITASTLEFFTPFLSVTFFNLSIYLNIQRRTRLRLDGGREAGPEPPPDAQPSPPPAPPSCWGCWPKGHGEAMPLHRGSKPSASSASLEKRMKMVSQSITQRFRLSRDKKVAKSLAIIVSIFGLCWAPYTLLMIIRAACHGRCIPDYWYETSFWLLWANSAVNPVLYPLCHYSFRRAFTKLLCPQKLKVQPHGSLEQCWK
reported-metric: Ki (nM)
Supply the numeric figure in nM, leaving out any unit text.

Please give the measured Ki for this molecule: COCCCS(=O)(=O)c1ccc(-c2ccc(CCN3CCC[C@H]3C)cc2)cc1.O=C(O)CC(O)(CC(=O)O)C(=O)O.O=C(O)CC(O)(CC(=O)O)C(=O)O [Cmpd (I) di-citrate]
0.75
